# measuredOn: UniProt:P97266
# Sequence (P97266 whole entry): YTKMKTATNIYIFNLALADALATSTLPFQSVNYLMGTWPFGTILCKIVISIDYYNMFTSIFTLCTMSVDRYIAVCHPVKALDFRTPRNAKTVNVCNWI
# assayMethodText: Inhibition of MOR in Hartley guinea pig ileum longitudinal muscle myenteric plexus assessed as inhibition of electrically-stimulated muscle contraction after 3 mins
valueType: IC50 (nM)
State just the number; it will be interpreted in nM.

Can you share its IC50? I mean this compound: C[C@@H](NC(=O)C[C@@H](N)Cc1ccc(O)cc1)C(=O)NCC(=O)N[C@@H](Cc1ccccc1)C(=O)N[C@H](CC(=O)N[C@H](C)C(=O)NCC(=O)N[C@@H](Cc1ccccc1)C(N)=O)Cc1ccc(O)cc1
670

----------
# measuredOn: Delta-type opioid receptor (Mus musculus)
# Sequence (P32300 whole entry): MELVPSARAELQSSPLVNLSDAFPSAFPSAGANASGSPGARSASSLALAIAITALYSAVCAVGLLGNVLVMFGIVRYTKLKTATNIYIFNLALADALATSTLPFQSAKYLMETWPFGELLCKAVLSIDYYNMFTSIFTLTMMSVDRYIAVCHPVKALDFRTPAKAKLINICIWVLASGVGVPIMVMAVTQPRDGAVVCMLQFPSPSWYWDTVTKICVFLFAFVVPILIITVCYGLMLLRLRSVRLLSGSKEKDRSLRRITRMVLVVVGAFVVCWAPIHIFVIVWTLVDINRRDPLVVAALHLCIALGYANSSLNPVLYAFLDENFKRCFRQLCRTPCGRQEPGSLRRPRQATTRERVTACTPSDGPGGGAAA
# assayMethodText: Inhibition of DOR in ICR mouse vas deferens assessed as inhibition of electrically-stimulated muscle contraction after 3 mins
valueType: IC50
# answer = value followed by unit

Entry under review: C[C@@H](NC(=O)C[C@@H](N)Cc1ccc(O)cc1)C(=O)NCC(=O)N[C@@H](Cc1ccccc1)C(=O)N[C@H](CC(=O)N[C@H](C)C(=O)NCC(=O)N[C@@H](Cc1ccccc1)C(N)=O)Cc1ccc(O)cc1 . Reported IC50?
710 nM
